The reported measurements were obtained from patent US20170165339A1.

Target: HLA-A*02 (human)
Assay: UV peptide-exchange ELISA, yield grade

binder | peptide exchange yield
YTLDIPVLFGV [YTLDIPVLFGV (SEQ ID NO: 16)] | ≥ 75%
SLATKIVEA [SLATKIVEA (SEQ ID NO: 55)] | 50 to 75%
ILNTHITEL [ILNTHITEL (SEQ ID NO: 149)] | 50 to 75%
ALSPSYLTV [ALSPSYLTV (SEQ ID NO: 11)] | 50 to 75%
ALISWQPPRA [ALISWQPPRA (SEQ ID NO: 104)] | 50 to 75%
TLDEKVAEL [TLDEKVAEL (SEQ ID NO: 24)] | 50 to 75%
VTSNSGILGV [VTSNSGILGV (SEQ ID NO: 131)] | 50 to 75%
GLSQITNQL [GLSQITNQL (SEQ ID NO: 20)] | 50 to 75%
ALQEELTEL [ALQEELTEL (SEQ ID NO: 26)] | 50 to 75%
SLDPSVTHL [SLDPSVTHL (SEQ ID NO: 109)] | 20 to 49%
MLAGIAITV [MLAGIAITV (SEQ ID NO: 148)] | 50 to 75%
VLDPALPALV [VLDPALPALV (SEQ ID NO: 123)] | 20 to 49%
TIYKDFVYI [TIYKDFVYI (SEQ ID NO: 87)] | 20 to 49%
SVDSHFQEV [SVDSHFQEV (SEQ ID NO: 86)] | 20 to 49%
GLLFSLRSV [GLLFSLRSV (SEQ ID NO: 92)] | ≥ 75%
KLFPQETLFL [KLFPQETLFL (SEQ ID NO: 264)] | 50 to 75%
